- tested on: PERK (Homo sapiens, UniProt Q9NZJ5)
- Construct: endogenous in cells
- Sequence (Q9NZJ5 30-1116): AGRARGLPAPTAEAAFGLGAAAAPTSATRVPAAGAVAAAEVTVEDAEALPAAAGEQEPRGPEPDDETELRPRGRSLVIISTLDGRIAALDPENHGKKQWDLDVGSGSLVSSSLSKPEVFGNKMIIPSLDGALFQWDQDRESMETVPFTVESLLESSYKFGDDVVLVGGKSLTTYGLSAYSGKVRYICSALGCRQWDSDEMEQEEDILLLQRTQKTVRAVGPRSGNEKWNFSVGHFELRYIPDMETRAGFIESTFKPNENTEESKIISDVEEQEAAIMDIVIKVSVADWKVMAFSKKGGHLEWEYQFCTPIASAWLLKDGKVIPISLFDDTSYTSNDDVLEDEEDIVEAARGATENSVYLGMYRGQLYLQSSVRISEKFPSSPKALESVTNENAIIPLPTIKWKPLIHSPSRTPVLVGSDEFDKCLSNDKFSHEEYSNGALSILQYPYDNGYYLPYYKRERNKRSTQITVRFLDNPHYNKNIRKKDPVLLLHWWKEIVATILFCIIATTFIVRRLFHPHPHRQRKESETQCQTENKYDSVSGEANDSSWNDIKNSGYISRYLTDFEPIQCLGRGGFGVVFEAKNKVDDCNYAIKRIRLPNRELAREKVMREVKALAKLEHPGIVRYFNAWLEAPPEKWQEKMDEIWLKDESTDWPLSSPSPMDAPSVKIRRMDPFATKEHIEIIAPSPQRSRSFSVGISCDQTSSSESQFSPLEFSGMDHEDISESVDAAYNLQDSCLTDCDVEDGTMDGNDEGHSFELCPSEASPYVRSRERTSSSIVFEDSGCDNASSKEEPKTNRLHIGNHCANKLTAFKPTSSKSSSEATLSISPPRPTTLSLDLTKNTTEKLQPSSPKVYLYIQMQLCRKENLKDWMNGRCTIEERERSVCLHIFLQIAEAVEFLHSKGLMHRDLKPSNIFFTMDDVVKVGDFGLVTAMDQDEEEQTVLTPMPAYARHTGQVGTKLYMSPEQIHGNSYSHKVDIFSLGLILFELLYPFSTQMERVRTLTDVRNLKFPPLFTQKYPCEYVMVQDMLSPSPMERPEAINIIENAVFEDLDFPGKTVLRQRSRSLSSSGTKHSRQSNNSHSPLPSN
- test summary: Cell-based TR-FRET assay of tunicamycin-induced eIF2a phosphorylation in 293 cells
experimental endpoint: IC50

Completed entries (count: 3):
CNC(=O)c1nc(-c2ccc(NC(=O)[C@H](O)c3cc(F)cc(F)c3)cc2C)cnc1N [LY2]: 117 nM
Cc1cccc(CC(=O)N2CCc3c2ccc(-c2cn(C)c4ncnc(N)c24)c3F)n1 [GSK2656157, reference compound]: 36 nM
Cc1cc(NC(=O)[C@H](O)c2cc(F)cc(F)c2)ccc1-c1cnc(N)c(C(=O)NC(C)C)c1 [LY4]: 54 nM

Now look at this one.
What value of IC50 has been reported for the following compound? Cc1cc(NC(=O)[C@H](O)c2cccc(F)c2)ccc1-c1cn(C)c2ncnc(N)c12 [LY3]
26 nM

---

- System: MCF10A-HER2 cells
- test summary: Cell viability dose-response (Cell Titer Blue) with or without thapsigargin
- Format: cell-based
- test context: Homo sapiens, 48 hours, absence or presence of thapsigargin 2 nM, dashed line of FIG. 2D
experimental endpoint: IC50

Kindly state the measured IC50 obtained for `Cc1cc(NC(=O)[C@H](O)c2cc(F)cc(F)c2)ccc1-c1cnc(N)c(C(=O)NC(C)C)c1` with MCF10A-HER2 cells.
~9 nM

---

Kindly state # kinases inhibited >50% for each of the entries shown.
- tested on: 456 kinases
- test summary: DiscoveRx scanMAX kinase profiling, number of kinases inhibited
- Format: binding
- test context: 2.0 μM; 456 kinases tested
Give bare numbers.

Example entries and their recorded answers appear below.
CNC(=O)c1nc(-c2ccc(NC(=O)[C@H](O)c3cc(F)cc(F)c3)cc2C)cnc1N: 35
Cc1cc(NC(=O)[C@H](O)c2cc(F)cc(F)c2)ccc1-c1cnc(N)c(C(=O)NC(C)C)c1: 20
Cc1cccc(CC(=O)N2CCc3c2ccc(-c2cn(C)c4ncnc(N)c24)c3F)n1 [GSK2656157, reference compound]: 80

// switching to the query molecule
Given the entry `Cc1cc(NC(=O)[C@H](O)c2cccc(F)c2)ccc1-c1cn(C)c2ncnc(N)c12` , report its measured # kinases inhibited >50%.
85
